- experiment_description: Dissolution comparison of Nα-Nsc-amino acids and Nα-Fmoc-amino acids
- Assay type: physicochemical
- Design: key: ◯: dissolution; Δ: partial dissolution; X: no dissolution
- assay_setup: Nsc-amino acid, 100 mg in 1 ml dichloromethane, heated at 40° C. for 5 minutes, then room temperature 5 minutes
value_kind: Dissolved state, Nsc, column B

The following compounds have reported results that may help.
CC(C)CC(NC(=O)OCCS(=O)(=O)c1ccc([N+](=O)[O-])cc1)C(=O)O (stereo not drawn) | X
O=C(O)[C@@H]1CCCN1C(=O)OCCS(=O)(=O)c1ccc([N+](=O)[O-])cc1 | ◯
CC[C@H](C)[C@H](NC(=O)OCCS(=O)(=O)c1ccc([N+](=O)[O-])cc1)C(=O)O | ◯
CC(C)(C)Oc1ccc(CC(NC(=O)OCCS(=O)(=O)c2ccc([N+](=O)[O-])cc2)C(=O)O)cc1 (stereo not drawn) | ◯
O=C(O)CNC(=O)OCCS(=O)(=O)c1ccc([N+](=O)[O-])cc1 | X

Measured Dissolved state, Nsc, column B of C[C@H](NC(=O)OCCS(=O)(=O)c1ccc([N+](=O)[O-])cc1)C(=O)O : X
